- System: herpes simplex virus Type 1 (HSV-1) [BW^s strain]
- experiment.description: HSV-1 plaque reduction assay in vero cells
- Assay type: cell-based
- assay.context: Human alphaherpesvirus 1, Table II, racemic series, 48 hour incubation, read-out: HSV-1 in vitro antiviral activity (IC50)
observed.property: IC50

In [3]: df
Out[3]:
                                   compound       result
0  Cc1cn(C2C=CC(OCP(=O)(O)O)C2)c(=O)[nH]c1=O (stereo not shown)  > 140 µg/mL
1  Nc1nc2c(ncn2C2C=CC(OCP(=O)(O)O)C2)c(=O)[nH]1 (stereo not shown) [drawing 15]   13.5 µg/mL
2  Nc1nc2c(ncn2C2CC(OCP(=O)(O)O)C(O)C2O)c(=O)[nH]1 (stereo not shown)  > 100 µg/mL

Fill blank: measured IC50 of the compound Nc1ncnc2c1ncn2C1C=CC(OCP(=O)(O)O)C1 (stereo not shown) [drawing 24] is ____.
> 116 µg/mL
